Source listed as the supplement of paper PMC6757056.

B1: library; a variant is named by its letters at N, in order (parent)
chain: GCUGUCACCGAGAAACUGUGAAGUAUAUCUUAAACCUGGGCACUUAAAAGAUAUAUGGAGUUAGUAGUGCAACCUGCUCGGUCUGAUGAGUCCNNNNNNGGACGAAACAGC

- Variants of: B1
- protocol-description: normalized RNA/DNA level with ligand (relative to sTRSVctl = 100) (log10 (% of sTRSVctl)); HEK293T; ligand: cyclic di-GMP (c-di-GMP-II aptamer); ligand concentration (+) RNA-Seq: 1 mM; higher = less ribozyme self-cleavage, higher mRNA level
- experimental-parameters: reporter: mCherry (pCS4076), ligand present: yes
measure-name: normalized RNA/DNA level with ligand (log10)

mutation-label | number
GUUAAG | 1.72
UCUGGC | 1.88
UUAGUC | 1.83
UAUGAC | 1.87
CAGCUG | 1.84
UGCUUC | 1.89
AGACUG | 1.84
CUUAGC | 1.88
CAUAUG | 1.81
UAGAGA | 1.72
UGGUCU | 1.91
CGAGGU | 1.84
GGUCUC | 1.87
AUCCUC | 1.94
CUUUGC | 1.88
AUCCAA | 1.73
CAUCGA | 1.78
CGUUAA | 1.4
CGCCAA | 1.56
CGCGCC | 1.88
GCGCAU | 1.8
GCUGAG | 1.67
